# study_target: α-chymotrypsin (Bos taurus, UniProt P00766)
# measurement_notes: in vitro
# setup_conditions: α-chymotrypsin (0.5 ng/μl) in PBS buffer
Bridge positions count the residues as written; N and C are the ends. Square brackets hold non-standard residues; d marks the D form. Peptide text beside a SMILES is read from it. S5 = C=CCCC[C@](C)(N)C(=O)O
quantity_measured: half-life

Input line: Note down half-life recorded for CC(C)C[C@H](NC(=O)[C@H](CCCCN)NC(=O)[C@]1(C)CCCC=CCCC[C@](C)(NC(=O)[C@H](Cc2ccccc2)NC(=O)[C@H](CCCNC(=N)N)NC(=O)[C@H](CCCCN)NC(=O)[C@@H](N)C(C)C)C(=O)N[C@@H](CCCCN)C(=O)N[C@@H](Cc2ccccc2)C(=O)N[C@@H](Cc2ccccc2)C(=O)N1)C(=O)N[C@@H](CCCCN)C(=O)N[C@@H](CCCCN)C(=O)N[C@@H](CC(C)C)C(=O)N[C@H](C(N)=O)C(C)C [B1-L-2, VKRFS5KFFS5KLKKLV-NH2] (H-VKRF[S5]KFF[S5]KLKKLV-NH2; staple 5-9; N-terminus assumed)
Output line: > 60 min

###

Could you please report measured pIC50 for the items listed next?
# Tested on: HUH-7
# setup_conditions: read-out: IC50 HUH-7; CCK-8, 48 h
Bridge positions count the residues as written; N and C are the ends. Square brackets hold non-standard residues; d marks the D form. Peptide text beside a SMILES is read from it. R8 = C=CCCCCCC[C@@](C)(N)C(=O)O; S5 = C=CCCC[C@](C)(N)C(=O)O
Give bare numbers, as −log10 of the molar value.

CC(C)C[C@H](NC(=O)[C@H](CCCCN)NC(=O)[C@H](CCCCN)NC(=O)[C@H](CC(C)C)NC(=O)[C@]1(C)CCCC=CCCC[C@](C)(NC(=O)[C@H](CCCCN)NC(=O)[C@H](Cc2ccccc2)NC(=O)[C@H](CCCNC(=N)N)NC(=O)[C@H](CCCCN)NC(=O)[C@@H](N)C(C)C)C(=O)N[C@@H](Cc2ccccc2)C(=O)N[C@@H](Cc2ccccc2)C(=O)N[C@@H](CCCNC(=N)N)C(=O)N1)C(=O)N[C@H](C(N)=O)C(C)C [B1-L-3, VKRFKS5FFRS5LKKLV-NH2] (H-VKRFK[S5]FFR[S5]LKKLV-NH2; staple 6-10; N-terminus assumed); 5.22
CC(C)C[C@@H]1NC(=O)[C@H](CCCCN)NC(=O)[C@H](CCCNC(=N)N)NC(=O)[C@H](Cc2ccccc2)NC(=O)[C@H](Cc2ccccc2)NC(=O)[C@](C)(NC(=O)[C@H](CCCCN)NC(=O)[C@H](Cc2ccccc2)NC(=O)[C@H](CCCNC(=N)N)NC(=O)[C@H](CCCCN)NC(=O)[C@@H](N)C(C)C)CCCCCCC=CCCC[C@@](C)(C(=O)N[C@@H](CC(C)C)C(=O)N[C@H](C(N)=O)C(C)C)NC(=O)[C@H](CCCCN)NC1=O [B1-L-7, VKRFKR8FFRKLKS5LV-NH2] (H-VKRFK[R8]FFRKLK[S5]LV-NH2; staple 6-13; N-terminus assumed); 5.13

// next entry
Input line: Fill in pIC50 for record CC(C)C[C@@H]1NC(=O)[C@H](CCCCN)NC(=O)[C@@](C)(NC(=O)[C@H](Cc2ccccc2)NC(=O)[C@H](Cc2ccccc2)NC(=O)[C@H](CCCCN)NC(=O)[C@H](CCCCN)NC(=O)[C@H](Cc2ccccc2)NC(=O)[C@H](CCCNC(=N)N)NC(=O)[C@H](CCCCN)NC(=O)[C@@H](N)C(C)C)CCCC=CCCC[C@@](C)(C(=O)N[C@@H](CC(C)C)C(=O)N[C@H](C(N)=O)C(C)C)NC(=O)[C@H](CCCCN)NC1=O [B1-L-4, VKRFKKFFS5KLKS5LV-NH2] (H-VKRFKKFF[S5]KLK[S5]LV-NH2; staple 9-13; N-terminus assumed)
Output line: 4.87
